Sequence of the target: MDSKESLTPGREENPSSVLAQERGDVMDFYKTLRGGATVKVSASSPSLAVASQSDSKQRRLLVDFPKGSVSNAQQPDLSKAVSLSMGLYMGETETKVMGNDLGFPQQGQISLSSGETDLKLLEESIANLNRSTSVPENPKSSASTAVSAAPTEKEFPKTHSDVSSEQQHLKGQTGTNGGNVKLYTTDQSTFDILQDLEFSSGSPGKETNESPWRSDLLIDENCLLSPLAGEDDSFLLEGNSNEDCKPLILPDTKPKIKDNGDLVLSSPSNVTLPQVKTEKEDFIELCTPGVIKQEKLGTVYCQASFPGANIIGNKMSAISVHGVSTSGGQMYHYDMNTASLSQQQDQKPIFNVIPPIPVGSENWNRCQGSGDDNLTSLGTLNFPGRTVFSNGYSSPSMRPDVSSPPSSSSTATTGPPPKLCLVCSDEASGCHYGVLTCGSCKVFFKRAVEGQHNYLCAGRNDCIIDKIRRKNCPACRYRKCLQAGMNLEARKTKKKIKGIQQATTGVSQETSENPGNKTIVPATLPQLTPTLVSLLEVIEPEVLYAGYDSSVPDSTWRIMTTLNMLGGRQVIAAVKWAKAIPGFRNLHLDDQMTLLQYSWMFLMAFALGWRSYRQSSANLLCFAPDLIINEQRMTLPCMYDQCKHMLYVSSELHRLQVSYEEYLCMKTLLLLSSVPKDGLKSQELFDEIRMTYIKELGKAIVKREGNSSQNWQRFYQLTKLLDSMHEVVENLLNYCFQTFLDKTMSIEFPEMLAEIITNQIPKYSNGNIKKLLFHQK
Ok so here's the combined literature set: pIC50 for the protein given by its sequence.
The meaning of pIC50 here: minus log10 of the concentration in molar units.

[
  {
    "compound": "COc1ccc(F)cc1C(C)(C)CC(O)(Cc1ccc(C)c2ccccc12)C(F)(F)F (stereo not given)",
    "pIC50": 7.24
  }
]

INPUT: // pIC50 lookup, key: CCN(CC(O)(CNc1cccc2c1cnn2-c1ccccc1)C(F)(F)F)C(=O)c1ccccc1F (racemic)
OUTPUT: 9.50

INPUT: Request the reported pIC50 associated with C[C@]12Cc3cnn(-c4ccc(F)cc4)c3C=C1CCC[C@@H]2[C@H](O)c1csc2ccccc12
OUTPUT: 8.82

* * *

Assembled from different publications: pIC50 for Glucocorticoid receptor (Homo sapiens, UniProt P04150).
Lab note — pIC50 values are minus log10 of concentrations in M.

Some compounds with known pIC50 results, for comparison:
[
  {
    "compound": "C[C@]12Cc3cnn(-c4ccc(F)cc4)c3C=C1CCC[C@@H]2[C@@H](O)c1cc(Cl)sc1Cl",
    "observed": 7.99
  },
  {
    "compound": "CCN(CC(O)(CNc1cccc2c1cnn2-c1ccc(F)cc1)C(F)(F)F)C(=O)c1ccccc1 (racemic)",
    "observed": 9.10
  },
  {
    "compound": "Cc1cc(C)c(S(=O)(=O)N[C@@H](C)Cc2c[nH]c3ccccc23)c(C)c1",
    "observed": 7.54
  },
  {
    "compound": "CC(C)(CC(O)(CC1CCCCC1)C(=O)Nc1ccc2c(c1)COC2=O)c1ccccc1 (single isomer, unassigned)",
    "observed": 8.05
  },
  {
    "compound": "Cc1ccc(F)cc1C(C)(C)CC(O)(Cn1cc(C)c(=O)c(C)c1)C(F)(F)F (stereo unspecified)",
    "observed": 6.90
  }
]

INPUT: Consider the compound COc1cc([C@@H]2[C@@H](C)[C@H](C)[C@H]2c2ccc(OC(C)=O)c(OC)c2)ccc1OC(C)=O and give its measured pIC50.
OUTPUT: 4.47

INPUT: Please look up its pIC50: COc1ccc(F)cc1C(C)(C)CC(O)(Cn1ccc(=O)c2ccccc21)C(F)(F)F (stereo unspecified)
OUTPUT: 8.00

INPUT: Could you share which pIC50 value was measured for CCN(CC(O)(CNC(=O)c1cnn(-c2ccc(F)cc2)c1N)C(F)(F)F)C(=O)c1c(Cl)cc(Cl)cc1Cl (racemic) ?
OUTPUT: 8.20

INPUT: // lookup pIC50 for C=CCOC(C1=CC(C)(C)Nc2ccc(-c3ccccc3OC)cc21)C(C)C (stereo unspecified)
OUTPUT: 6.15
